Below, each entry is listed with its recorded yeast fitness.
B1: tRNA (parent)
chain: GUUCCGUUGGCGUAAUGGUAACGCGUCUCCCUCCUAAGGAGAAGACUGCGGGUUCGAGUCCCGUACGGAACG

Variants of: B1
assay-remarks: yeast fitness relative to wild type (ratio to wild type); higher = fitter; tRNA-Arg(CCU), competitive growth, 37 C, YPD
Fewer inactive variants are shown than the library holds.

Prompt: Determine its reported yeast fitness: A45G A57U
Response: 0.751

Prompt: Determine its reported yeast fitness: U28C G41C C49A
Response: ≤ 0.5

Prompt: Determine its reported yeast fitness: C22G G48C G67C
Response: ≤ 0.5
